tested-system: Angiotensin II receptor (Homo sapiens) (UniProt P30556+P50052)
procedure-summary: IC50 ratio of human adrenal AT2 receptor to AT1 receptor.
Assay type: protein assay
Mark Satisfied for Ratio under 5, Not satisfied if at or over.

> print(dat)
                                 smiles.code  qualitative.label
 1  CCCCC(=O)Nc1ccc(Cl)c(-n2nc(CC)n(Cc3ccc(-c4ccccc4S(=O)(=O)NC(=O)OC(C)(C)C)cc3F)c2=O)c1          Satisfied
 2  CCCCNC(=O)c1ccc(Br)c(-n2nc(CCC)n(Cc3ccc(-c4ccccc4S(=O)(=O)NC(=O)c4cc(Cl)ccc4Cl)cc3F)c2=O)c1          Satisfied
 3  CCCCc1nn(-c2cc(NC(=O)CC)ccc2C(F)(F)F)c(=O)n1Cc1ccc(-c2ccccc2S(=O)(=O)NC(=O)OC(C)(C)C)cc1      Not satisfied
 4  CCCCc1nn(-c2cc(NC(=O)CC)ccc2C(F)(F)F)c(=O)n1Cc1ccc(-c2ccccc2S(=O)(=O)NC(=O)c2cc(Cl)ccc2Cl)cc1F      Not satisfied
 5  CCCCc1nn(-c2cc(NC(=O)c3ccco3)ccc2Cl)c(=O)n1Cc1ccc(-c2ccccc2S(=O)(=O)NC(=O)OC(C)(C)C)cc1F      Not satisfied
 6  CCCCC(=O)Nc1ccc(Br)c(-n2nc(CC)n(Cc3ccc(-c4ccccc4S(=O)(=O)NC(=O)OC(C)C)cc3F)c2=O)c1          Satisfied
 7  CCCCNC(=O)c1ccc(Cl)c(-n2nc(CCCC)n(Cc3ccc(-c4ccccc4S(=O)(=O)NC(=O)OC(C)(C)C)cc3F)c2=O)c1          Satisfied
 8  CCCCNC(=O)c1ccc(Cl)c(-n2nc(CCCC)n(Cc3ccc(-c4ccccc4S(=O)(=O)NC(=O)c4ccccc4Cl)cc3F)c2=O)c1      Not satisfied
 9  CCc1nn(-c2cc(NC(=O)c3ccccc3)ccc2Br)c(=O)n1Cc1ccc(-c2ccccc2S(=O)(=O)NC(=O)OC(C)(C)C)cc1F          Satisfied
10  CCCCC(=O)Nc1ccc(Br)c(-n2nc(CC)n(Cc3ccc(-c4ccccc4S(=O)(=O)NC(=O)c4cc(F)ccc4F)cc3F)c2=O)c1          Satisfied
11  CCCCc1nn(-c2cc(C(=O)NCCOC)ccc2Cl)c(=O)n1Cc1ccc(-c2ccccc2S(=O)(=O)NC(=O)OC(C)(C)C)cc1F      Not satisfied
12  CCCCc1nn(-c2cc(NC(=O)CC)ccc2C(F)(F)F)c(=O)n1Cc1ccc(-c2ccccc2S(=O)(=O)NC(=O)OC(C)(C)C)cc1F          Satisfied
13  CCOCC(=O)Nc1ccc(Cl)c(-n2nc(CC)n(Cc3ccc(-c4ccccc4S(=O)(=O)NC(=O)OC(C)(C)C)cc3F)c2=O)c1          Satisfied
14  CCCCc1nn(-c2cc(NC(=O)CC)ccc2Cl)c(=O)n1Cc1ccc(-c2ccccc2S(=O)(=O)NC(=O)c2ccccc2Cl)cc1F      Not satisfied
